Values were extracted from patent US20240400690A1.

Target: T1, B7-H3 on tumour cells (MDA-MB-468 cells, N87 cells) (UniProt Q5ZPR3 29-534, limits assumed)
T1 construct: whole, on cells
T1 sequence (looked up): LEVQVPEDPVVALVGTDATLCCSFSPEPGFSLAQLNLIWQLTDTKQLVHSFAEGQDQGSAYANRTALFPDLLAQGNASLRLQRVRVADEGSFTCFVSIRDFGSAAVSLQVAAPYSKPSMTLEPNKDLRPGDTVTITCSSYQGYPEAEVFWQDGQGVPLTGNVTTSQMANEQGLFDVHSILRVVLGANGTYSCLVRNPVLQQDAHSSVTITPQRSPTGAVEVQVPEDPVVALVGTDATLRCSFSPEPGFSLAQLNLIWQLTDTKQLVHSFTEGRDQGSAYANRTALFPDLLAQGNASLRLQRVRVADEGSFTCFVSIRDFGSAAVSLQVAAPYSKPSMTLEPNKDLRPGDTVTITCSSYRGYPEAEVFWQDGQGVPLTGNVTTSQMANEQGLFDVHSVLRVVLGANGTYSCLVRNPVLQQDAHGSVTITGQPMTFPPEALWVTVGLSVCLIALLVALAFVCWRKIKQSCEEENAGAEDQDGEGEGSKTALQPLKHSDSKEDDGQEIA
Assay: flow cytometry on MDA-MB-468 cells, PE goat anti-human IgG Fc secondary; blank 0.9% in the positive gate
propertyMeasured: % of cells in positive gate V1-R at 100 nM (%)
Numeric only. Scale: %

Please review the entries below; each comes with its answer.
antibody V5 (antibody, human IgG1, kappa, V domains shown, Humanized from chimeric antibody M1; expressed in HEK293F cells; also called humanized antibody V5) VH: QVQLVQSGAEVKKPGASVKVSCKASGYTFTDYDINWVRQAPGQRLEWIGWIFPGDDTTKYNEKFKGRATLTADKSASTAYMELSSLRSEDTAVYYCARSPSFDYWGQGTLVTVSS VL: QIVLTQSPSSLSASVGDRVTITCSASSTIGFMYWYQQKPGKAPKRWIYDTSKLASGVPSRFSVSGSGTDYTLTISSLQPEDFATYYCHQRSSYPTFGQGTKVEIKR	99.7
antibody M1 (antibody, human IgG1, kappa, V domains shown, Chimeric antibody, murine variable regions on the IgG1 constant region; expressed in HEK293F cells; also called chimeric antibody M1) VH: QVQLQQSGPELVKPGASVRISCKASGYTFTDYDINWVQQRPGQGLEWIGWIFPGDDTTKYNEKFKGRATLTADKSSNTAYMQLNGLTSENSAVYFCARSPSFDYWGQGTLVTVSS VL: QIVLTQSPAIMSASPGERVTMTCSASSTIGFMYWYQQKPGTSPKRWIYDTSKLASGVPARFSVSGSGTSYSLTISSMEAEDAATYYCHQRSSYPTFGGGTKLEIKR	99.7
control antibody M30-H1-L4 (antibody, human IgG1, kappa, V domains shown, Control anti-B7-H3 antibody; also called HIL4) VH: QVQLVQSGAEVKKPGSSVKVSCKASGYTFTNYVMHWVRQAPGQGLEWMGYINPYNDDVKYNEKFKGRVTITADESTSTAYMELSSLRSEDTAVYYCARWGYYGSPLYYFDYWGQGTLVTVSS VL: EIVLTQSPATLSLSPGERATLSCRASSRLIYMHWYQQKPGQAPRPLIYATSNLASGIPARFSGSGSGTDFTLTISSLEPEDFAVYYCQQWNSNPPTFGQGTKVEIKR	99.3
antibody V1 (antibody, human IgG1, kappa, V domains shown, Humanized from chimeric antibody M1; expressed in HEK293F cells; also called humanized antibody V1) VH: EVQLVQSGAEVKKSGESLKISCKASGYTFTDYDINWVRQMPGKGLEWMGWIFPGDDTTKYNEKFKGQVTISADKSTNTAYLQWSSLKASDTAMYYCARSPSFDYWGQGTLVTVSS VL: QIVLTQSPGTLSLSPGERATLSCSASSTIGFMYWYQQKPGQAPRRWIYDTSKLASGVPDRFSVSGSGTDYTLTISRLEPEDFAVYYCHQRSSYPTFGQGTKVEIKR	99.7

Please find the next binder below.
Prompt: Given the binder antibody V3 (antibody, human IgG1, kappa, V domains shown, Humanized from chimeric antibody M1; expressed in HEK293F cells; also called humanized antibody V3) VH: EVQLVQSGAEVKKSGESLKISCKASGYTFTDYDINWVRQMPGKGLEWIGWIFPGDDTTKYNEKFKGQVTLSADKSTNTAYMQWSSLKASDTAMYYCARSPSFDYWGQGTLVTVSS VL: QIVLTQSPGTLSLSPGERATLSCSASSTIGFMYWYQQKPGQAPRRWIYDTSKLASGVPDRFSGSGSGTDYTLTISRLEPEDFAVYYCHQRSSYPTFGQGTKVEIKR , what is its reported % of cells in positive gate V1-R at 100 nM?
Response: 99.6
